The reader will find log10 IC50 measurements below, all made with UniProt P00519.
measuredAttribute: log10 IC50 (log10 of the value in nM)

INSERT INTO measurements (compound, testedon, quantitativeresult) VALUES
  ('COCCOCCOCCOCCOCCOCCOCCOCCOCCNC(=O)OCCN1CCN(c2cc(Nc3ncc(C(=O)Nc4c(C)cccc4Cl)s3)nc(C)n2)CC1', 'UniProt P00519', -0.51),
  ('COCCOCCOCCOCC(=O)NC(CC(C)C)C(=O)OCCN1CCN(c2cc(Nc3ncc(C(=O)Nc4c(C)cccc4Cl)s3)nc(C)n2)CC1 (stereo not shown)', 'UniProt P00519', -0.37),
  ('COCCOCCOCCOCCOCCOCCOCCNC(=O)OCCN1CCN(c2cc(Nc3ncc(C(=O)Nc4c(C)cccc4Cl)s3)nc(C)n2)CC1', 'UniProt P00519', -0.49),
  ('COCCOCCOCCOCC(=O)NC(C(=O)OCCN1CCN(c2cc(Nc3ncc(C(=O)Nc4c(C)cccc4Cl)s3)nc(C)n2)CC1)C(C)C (stereo not shown)', 'UniProt P00519', -0.43),
  ('COCCOCCOCCOCCOCCOCCOCCOCCOCCN1CCN(Cc2ccc(C(=O)Nc3ccc(C)c(Nc4nccc(-c5cccnc5)n4)c3)cc2)CC1', 'UniProt P00519', 3.58),
  ('COCCOCCOCCOCC(=O)OCCN1CCN(c2cc(Nc3ncc(C(=O)Nc4c(C)cccc4Cl)s3)nc(C)n2)CC1', 'UniProt P00519', -0.54),
  ('COCCOCCOCCNC(=O)OCCN1CCN(c2cc(Nc3ncc(C(=O)Nc4c(C)cccc4Cl)s3)nc(C)n2)CC1', 'UniProt P00519', -0.52);

* * *

# testedOn: ABL (Homo sapiens, UniProt P00519)
# Sequence (P00519 whole entry): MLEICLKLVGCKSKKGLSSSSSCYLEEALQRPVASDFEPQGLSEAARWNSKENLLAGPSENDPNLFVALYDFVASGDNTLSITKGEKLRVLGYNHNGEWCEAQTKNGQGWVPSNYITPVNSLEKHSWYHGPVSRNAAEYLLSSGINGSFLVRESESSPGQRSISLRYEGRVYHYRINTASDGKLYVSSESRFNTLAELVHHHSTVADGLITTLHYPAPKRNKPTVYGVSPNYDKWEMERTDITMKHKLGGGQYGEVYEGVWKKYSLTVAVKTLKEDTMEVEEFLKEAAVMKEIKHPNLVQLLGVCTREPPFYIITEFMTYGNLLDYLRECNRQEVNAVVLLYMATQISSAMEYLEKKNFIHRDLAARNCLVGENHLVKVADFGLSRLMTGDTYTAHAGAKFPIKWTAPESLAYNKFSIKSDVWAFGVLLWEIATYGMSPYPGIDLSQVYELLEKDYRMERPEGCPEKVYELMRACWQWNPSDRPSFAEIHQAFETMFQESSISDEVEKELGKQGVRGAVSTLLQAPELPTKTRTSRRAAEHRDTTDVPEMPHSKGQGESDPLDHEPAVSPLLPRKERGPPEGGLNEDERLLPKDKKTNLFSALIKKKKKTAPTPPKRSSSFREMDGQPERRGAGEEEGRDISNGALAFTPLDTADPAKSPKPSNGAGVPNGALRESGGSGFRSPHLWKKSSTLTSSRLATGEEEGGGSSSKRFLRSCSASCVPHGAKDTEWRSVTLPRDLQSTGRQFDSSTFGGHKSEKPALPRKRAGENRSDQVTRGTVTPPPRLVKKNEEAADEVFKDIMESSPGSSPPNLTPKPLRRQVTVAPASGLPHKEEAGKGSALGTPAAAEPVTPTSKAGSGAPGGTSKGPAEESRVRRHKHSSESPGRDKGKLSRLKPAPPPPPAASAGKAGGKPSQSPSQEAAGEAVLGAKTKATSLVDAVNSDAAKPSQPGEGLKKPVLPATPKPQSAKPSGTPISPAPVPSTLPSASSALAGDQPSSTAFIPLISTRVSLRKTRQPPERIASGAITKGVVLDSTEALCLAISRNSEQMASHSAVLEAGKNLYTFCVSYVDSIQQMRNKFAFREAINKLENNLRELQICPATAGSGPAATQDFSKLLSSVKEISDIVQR
# protocolDescription: Off-chip mobility-shift kinase assay (Caliper LABCHIP), ABL
# experimentalContext: concentration 3.0E−11; dasatinib-corresponding compounds
Entries annotated with measured ABL AVG % Activity at 3.0E−11
measuredAttribute: ABL AVG % Activity at 3.0E−11 (%)

INSERT INTO measurements (molecule, measuredattribute, quantitativeresult) VALUES
  ('COCCOCCOCCOCC(=O)NC(CC(C)C)C(=O)OCCN1CCN(c2cc(Nc3ncc(C(=O)Nc4c(C)cccc4Cl)s3)nc(C)n2)CC1 (centres unmarked)', 'ABL AVG % Activity at 3.0E−11', 97),
  ('COCCOCCOCCOCC(=O)NC(C(=O)OCCN1CCN(c2cc(Nc3ncc(C(=O)Nc4c(C)cccc4Cl)s3)nc(C)n2)CC1)C(C)C (centres unmarked)', 'ABL AVG % Activity at 3.0E−11', 95),
  ('COCCOCCOCCOCCOCCNC(=O)OCCN1CCN(c2cc(Nc3ncc(C(=O)Nc4c(C)cccc4Cl)s3)nc(C)n2)CC1', 'ABL AVG % Activity at 3.0E−11', 94),
  ('COCCOCCOCCOCCOCCOCCOCCOCCOCCNC(=O)OCCN1CCN(c2cc(Nc3ncc(C(=O)Nc4c(C)cccc4Cl)s3)nc(C)n2)CC1', 'ABL AVG % Activity at 3.0E−11', 92),
  ('COCCOCCOCCOCCOCCOCCOCCNC(=O)OCCN1CCN(c2cc(Nc3ncc(C(=O)Nc4c(C)cccc4Cl)s3)nc(C)n2)CC1', 'ABL AVG % Activity at 3.0E−11', 91);
